assayed_target: human GM-CSF (human, UniProt P04141 18-144)
Sequence (P04141 18-144): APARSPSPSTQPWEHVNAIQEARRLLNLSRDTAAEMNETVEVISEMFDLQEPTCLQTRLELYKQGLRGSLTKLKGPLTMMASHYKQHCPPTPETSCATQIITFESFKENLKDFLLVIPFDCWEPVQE
assay_comment: cell-based or functional assay
measured_property: IC50 (pM) in TF-1 proliferation assay, human GM-CSF 0.25 ng/ml
Respond numerically; units are pM and should not be typed.

MOR04354 Fab (Fab, V domains shown, X-cloned Fab (VH of MOR04290 x VL of MOR04302) with FLAG and 6xHis tags) VH: QVQLVESGGGLVQPGGSLRLSCAASGFTFSSYWMNWVRQAPGKGLEWVSGIESKWAGGATYYAAGVKGRFTISRDNSKNTLYLQMNSLRAEDTAVYYCARGFGTDFWGQGTLVTVSS VL: DIELTQPPSVSVAPGQTARISCSGDSIGKKYAYWYQQKPGQAPVLVIYKKRPSGIPERFSGSNSGNTATLTISGTQAEDEADYYCSAWGDKGMVFGGGTKLTVLG ... 56

Name the recorded IC50 (pM) in TF-1 proliferation assay, human GM-CSF 0.25 ng/ml for MOR04287 Fab (Fab, V domains shown, Fab with FLAG and 6xHis tags) VH: QVQLVESGGGLVQPGGSLRLSCAASGFTFSSYWMNWVRQAPGKGLEWVSGIENKRAGGATFYAASVKGRFTISRDNSKNTLYLQMNSLRAEDTAVYYCARGFGTDFWGQGTLVTVSS VL: DIELTQPPSVSVAPGQTARISCSGDSIGKKYAYWYQQKPGQAPVLVIYKKRPSGIPERFSGSNSGNTATLTISGTQAEDEADYYCSSWDSTGLVFGGGTKLTVLG .
3380

Every entry's value here was drawn from patent US20090053213A1.
